Where these numbers come from: patent US20150139990A1

- TGT: T1, human CD81 on CD81-expressing cells (Jurkat E6.1, human PBMC, Ramos) (human, UniProt P60033 1-236)
- T1 sequence: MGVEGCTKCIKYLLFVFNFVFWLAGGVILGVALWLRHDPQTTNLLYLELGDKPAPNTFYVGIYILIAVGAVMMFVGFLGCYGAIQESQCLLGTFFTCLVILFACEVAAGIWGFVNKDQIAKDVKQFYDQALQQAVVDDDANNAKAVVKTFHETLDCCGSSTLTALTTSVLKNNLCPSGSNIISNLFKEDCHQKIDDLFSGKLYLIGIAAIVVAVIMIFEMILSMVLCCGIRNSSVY
- EXPERIMENT SUMMARY: cell-based or functional assay
READOUT TYPE: Jurkat chemotaxis (% of control IgG4) at 0.01 µg/mL (%)
State just the number; it will be interpreted in %.

002-B07 (antibody, human IgG4 S228P, lambda, V domains shown, IgG4 S228P) VH: EVQLLESGGGLVQPGGSLRLSCAASGFTFSSNYMSWVRQAPGKGLEWVSYISSSSTYTDYADSVKGRFTISRDNSKNTLYLQMNSLRAEDTAVYYCARYSYGRDNFDYWGQGTLVTVSS VL: QSVLTQPSSASGTPGQRVTISCTGSTSNIGAGYDTHWYQQLPGTAPKLLIYGNSNRPSGVPDRFSGSKSGTSASLAISGLRSEDEADYYCQSYDTNLSGWVFGGGTKLTVLG ... 87
002-B05 (antibody, human IgG4 S228P, lambda, V domains shown, IgG4 S228P) VH: EVQLLESGGGLVQPGGSLRLSCAASGFTFSSNYMSWVRQAPGKGLEWVSYISSSSTYTDYADSVKGRFTISRDNSKNTLYLQMNSLRAEDTAVYYCARYSYSRDNFDYWGQGTLVTVSS VL: QSVLTQPPSASGTPGQRVTISCTGSTSNIGAGYGTHWYQRLPGTAPKLLIYGNSNRPSGVPDRFSGSKSGTSASLAISGLRSEDEADYYCQSYDTNLSVWVFGGGTKLTVLG ... 78

Query 002-D03 (antibody, human IgG4 S228P, lambda, V domains shown, IgG4 S228P) VH: EVQLLESGGGLVQPGGSLRLSCAASGFTFRSNYMSWVRQAPGKGLEWVSYISSSSTYTDYADSVKGRFTISRDNSKNTLYLQMNSLRAEDTAVYYCARYSYGRDNFDYWGQGTLVTVSS VL: QSVLTQPPSASGTPGQRVTISCTGSTSNIGAGYDTHWYQQLPGTAPKLLIYGNSNRPSGVPDRFSGSKSGTSASLAISGLRSEDEADYYCQSYDTNLSVWVFGGGTKLTVLG yields Jurkat chemotaxis (% of control IgG4) at 0.01 µg/mL of 91
